- experimental-system: M2 (Homo sapiens, UniProt P08172)
- Sequence (P08172 whole entry): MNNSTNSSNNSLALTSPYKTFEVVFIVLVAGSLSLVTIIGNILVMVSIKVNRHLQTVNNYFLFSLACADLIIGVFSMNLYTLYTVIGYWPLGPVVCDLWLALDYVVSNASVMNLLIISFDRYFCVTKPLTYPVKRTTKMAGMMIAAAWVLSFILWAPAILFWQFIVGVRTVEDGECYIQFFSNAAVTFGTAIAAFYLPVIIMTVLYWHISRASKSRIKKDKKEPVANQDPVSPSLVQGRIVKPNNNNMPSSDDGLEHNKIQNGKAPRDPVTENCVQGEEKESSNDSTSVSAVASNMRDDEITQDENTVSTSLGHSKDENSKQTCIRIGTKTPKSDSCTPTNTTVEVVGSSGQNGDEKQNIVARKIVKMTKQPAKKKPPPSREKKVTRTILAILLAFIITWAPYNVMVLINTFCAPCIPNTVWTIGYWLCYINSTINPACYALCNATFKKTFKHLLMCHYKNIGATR
- test-name: In vitro functional assay of muscarinic acetylcholine receptor activity, M2
- Format: cell-based
- condition-info: antagonist IC50 at M2; read-out: M2 IC50
pIC50: −log10 of the molar value.
In this section we review reported pIC50 values for a set of compounds.

1. [2H]C([2H])(NCCC(=O)N1CC2CCC(C1)N2c1ccc(C#N)cn1)c1cccc2ncsc12 :: 5.00 to 6.00
2. Cc1cc(Cl)cnc1N1CCN(C(=O)CCCc2cccc3ncccc23)[C@H](C)C1 :: > 7.00
3. C[C@@H]1CN(c2ccc(F)c(C#N)c2)CCN1C(=O)CCCc1cccc2ncccc12 :: 5.00 to 6.00
4. O=C(CCNCc1cccc2ncccc12)N1C[C@H]2CC[C@@H](C1)N2c1ccncc1F :: < 5.00
5. N#Cc1ccc(N2C3CCC2CN(C(=O)CCN(Cc2cccc4ncnn24)C2CC2)C3)nc1 :: 5.00 to 6.00

Exercise: Give the measured pIC50 of O=C(COCCc1cccn2ncnc12)N1CC2CCC(C1)N2c1ccc(Cl)cn1 .
Solution: < 5.00

Exercise: Give the measured pIC50 of C[C@H]1CN(c2ccc(C#N)nc2)CCN1C(=O)CCS(=O)(=O)c1cccc2ncsc12 .
Solution: 5.00 to 6.00

Exercise: Give the measured pIC50 of N#Cc1ccc(N2C3CCC2CN(C(=O)CCOCc2cccc4nccn24)C3)nc1 .
Solution: < 5.00

Exercise: Give the measured pIC50 of Cc1nc2cccc(S(=O)(=O)CCC(=O)N3CCN(c4ccc(C(F)(F)F)cn4)CC3)c2o1 .
Solution: < 5.00

Exercise: Give the measured pIC50 of N#Cc1ccc(N2C3CCC2CN(C(=O)CCS(=O)(=O)c2cccc4ncsc24)C3)nc1 .
Solution: 6.00 to 7.00

Exercise: Give the measured pIC50 of Cc1ccc2ncnn2c1CNCCC(=O)N1CC2CCC(C1)N2c1ccc(C#N)cn1 .
Solution: < 5.00

Exercise: Give the measured pIC50 of CC1CN(c2ccc(C#N)cn2)[C@H](C)CN1C(=O)CCS(=O)(=O)c1cccc2ncsc12 (stereo partly shown) .
Solution: < 5.00

Exercise: Give the measured pIC50 of N#Cc1ccc(N2C3CCC2CN(C(=O)COCc2cccn4ncnc24)C3)nc1 .
Solution: < 5.00

Exercise: Give the measured pIC50 of O=C(CCNCc1c(F)ccc2nccn12)N1CC2CCC(C1)N2c1ccc(Cl)cn1 .
Solution: 5.00 to 6.00

Exercise: Give the measured pIC50 of CC1CN(C(=O)CCCc2cccc3ncccc23)CCN1c1ccc(F)cn1 (stereo not shown) .
Solution: 5.00 to 6.00

Exercise: Give the measured pIC50 of O=C(CCNCc1cccn2nccc12)N1CC2CCC(C1)N2c1ccc(Cl)cn1 .
Solution: 5.00 to 6.00

Exercise: Give the measured pIC50 of O=C(CCCc1cccc2ncccc12)N1CC2CC1CN2c1ccncc1 (stereo not shown) .
Solution: 5.00 to 6.00

Exercise: Give the measured pIC50 of Cc1nc2cccc(CNCC(=O)N3C[C@H]4CC[C@@H](C3)N4c3ccncc3F)c2o1 .
Solution: 5.00 to 6.00

Exercise: Give the measured pIC50 of O=C(COCc1cccc2ncsc12)N1C[C@H]2CC[C@@H](C1)N2c1ccncc1F .
Solution: 5.00 to 6.00

Exercise: Give the measured pIC50 of C[C@H]1CN(c2ccn3nccc3c2)CCN1C(=O)CCS(=O)(=O)c1cccc2ncsc12 .
Solution: 5.00 to 6.00
